- RUN_DESCRIPTION: chemical genetic growth profiling, strain panel (AID 1159580);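 also: tested at 20 µM; growth read once vehicle control cultures reached saturation at 30 °C; 1 = growth at the plate median or of vehicle wells; lower values mean less growth of the strain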
- CONDITION_NOTES: S. cerevisiae deletion strains, growth OD, locus YPL051W, strain arl3, hits give low values
The whole screen tested about 5,500 compounds, of which about 2,000 (36%) were called active. Inconclusive results (about 18%) are left out. The list shows a part of the results.
A collection of compounds and their measured normalized growth
Keep it simple and answer with nothing but the number.

C=CCSC[C@@H](N)C(=O)O: 0.998
COc1ccc(-c2cc(=O)c3c(O)c(OC)c(O[C@H]4O[C@H](CO[C@@H]5O[C@@H](C)[C@H](O)[C@@H](O)[C@H]5O)[C@@H](O)[C@H](O)[C@H]4O)cc3o2)cc1: 0.995
NC(=O)c1ccc([N+](=O)[O-])cc1Cl: 0.988

For NC[C@H]1O[C@H](OC2[C@@H](N)C[C@@H](N)[C@H](O[C@H]3O[C@H](CO)[C@@H](O)[C@H](N)[C@H]3O)[C@H]2O)[C@H](O)[C@@H](O)[C@@H]1O (some centres not stated) , what is its reported normalized growth?
0.992

Bench note: what normalized growth did O=C(CCCN1CCC2(CC1)C(=O)NCN2c1ccccc1)c1ccc(F)cc1 show?
0.974

Which normalized growth reading was recorded for the compound COc1cc2c(cc1OC)-c1c(oc3cc(O)cc(O)c3c1=O)CO2 ?
1

What measured normalized growth goes with COc1nc(NC(C)C)nc(NC(C)C)n1 ?
1.01

normalized growth for C[C@H]1[C@H](C)CC[C@]2(C(=O)O)CC[C@]3(C)C(=CCC4[C@@]5(C)C[C@@H](O)[C@H](O)[C@@](C)(CO)C5CC[C@]43C)[C@H]12 (some centres not stated) ?
0.974

Endpoint output: normalized growth of COC1CC(OC2CCC3(C)C(CCC4C3CCC3(C)C(C5=CC(=O)OC5)C(OC(C)=O)CC43O)C2)OC(C)C1O (configuration not stated) . Value?
1.01

Bench note: what normalized growth did COc1cc(-c2cc(=O)c3c(O)c(OC)c(OC)c(OC)c3o2)cc(OC)c1OC show?
1

###

- RUN_DESCRIPTION: chemical genetic growth profiling, strain panel (AID 1159580)
- CONDITION_NOTES: S. cerevisiae deletion strains, growth OD, locus YLR058C, strain SHM2, hits give low values
Screen size: about 5,500 compounds; about 2,000 (36%) were called active. Another 18% or so got no clear call; they are omitted. The list shows a part of the results.
MEASURED_PROPERTY: normalized growth
Field format: numeric only.

CCn1nc(C(=O)O)c(=O)c2cc3c(cc21)OCO3: 1.02
NC[C@H]1O[C@H](OC2[C@@H](N)C[C@@H](N)[C@H](O[C@H]3O[C@H](CO)[C@@H](O)[C@H](N)[C@H]3O)[C@H]2O)[C@H](O)[C@@H](O)[C@@H]1O (some centres undefined): 0.978

Name the recorded normalized growth for C[C@@H](CO)NC(=O)C1C=C2c3cccc4[nH]cc(c34)C[C@H]2N(C)C1 (some centres undefined) .
1

###

Recorded measurements of normalized growth, one per entry
- RUN_DESCRIPTION: chemical genetic growth profiling, strain panel (AID 1159580)
- CONDITION_NOTES: S. cerevisiae deletion strains, growth OD, locus YBR229C, strain ROT2, hits give low values
Out of some 5,500 compounds screened, about 2,000 (36%) were called active. About 18% were inconclusive and are not listed. The list shows a part of the results.
Write no unit; give the number alone.

Field: example entries. Status: answers known.
CC(=O)O[C@@H]1c2c(ccc3ccc(=O)oc23)OC(C)(C)[C@@H]1OC(=O)CC(C)C: 0.993
N#Cc1c(Cl)cccc1N1CCCC1: 0.935
CC1=CC(=O)C2C(C)(C)CCC[C@]2(C)[C@@]1(O)CCc1ccoc1 (some centres undefined): 1.01

Which normalized growth is reported for this molecule? Cc1c(OCC(F)(F)F)ccnc1CS(=O)c1nc2ccccc2[nH]1 (centres undefined)
0.982

###

Reported normalized growth is given for each of the following compounds.
- RUN_DESCRIPTION: chemical genetic growth profiling, strain panel (AID 1159580)
- CONDITION_NOTES: S. cerevisiae deletion strains, growth OD, locus YLR221C, strain rsa3, hits give low values
Screen size: about 5,500 compounds; about 2,000 (36%) were called active. Not shown: some 18% with an inconclusive outcome. The list shows a part of the results.
Respond with the number and no other words.

Worked set:
Oc1ccc2c3c1OC1[C@@H](O)CC[C@@]4(O)[C@@H](C2)N(CC2CCC2)CC[C@]314 (stereo partly drawn): 1.02
Nc1ccc(S(=O)(=O)Nc2ncccn2)cc1: 0.968
CN(C)CC[C@H](c1ccc(Cl)cc1)c1ccccn1: 1.01
CC(C)C[C@@H](NC(=O)OCC1c2ccccc2-c2ccccc21)C(=O)O: 1.03

Could you tell me which normalized growth is on file for Oc1ccc([C@H]2Oc3cc(O)cc(O)c3C[C@H]2O)cc1 ?
0.964

Suppose we examine the compound O=C(Oc1ccccc1C(=O)O)c1ccccc1O ; what normalized growth value has been reported?
1

// lookup normalized growth for O=c1c(O)cc([C@H]2Oc3cc(O)cc(O)c3C[C@H]2O)cc2c([C@H]3Oc4cc(O)cc(O)c4C[C@H]3O)cc(O)c(O)c12
1.03

###

- RUN_DESCRIPTION: chemical genetic growth profiling, strain panel (AID 1159580);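 also: tested at 20 µM; growth read once vehicle control cultures reached saturation at 30 °C; 1 = growth at the plate median or of vehicle wells; lower values mean less growth of the strain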
- CONDITION_NOTES: S. cerevisiae deletion strains, growth OD, locus YMR307W, strain GAS1, hits give low values
Screen size: about 5,500 compounds; about 2,000 (36%) were called active. Roughly 18% stayed inconclusive and do not appear here. The list shows a part of the results.
normalized growth for assorted molecules
Output spec: single numeric token, no unit.

Worked examples, 3 molecules total:
NC(N)=Nc1ccc(Cl)cc1: 1.01
CC(=O)Oc1ccccc1C(=O)Oc1ccccc1C(=O)O: 0.995
COc1ccccc1N1CCN(CCN(C(=O)c2ccc(F)cc2)c2ccccn2)CC1: 0.993

Bench note: what normalized growth did N#CCCN1C(=O)C2(OCCO2)c2ccccc21 show?
1.05

# normalized growth lookup, item CC(=O)OCC(=O)[C@@]1(O)CCC2C3C[C@H](C)C4=CC(=O)C=CC4(C)C3[C@@H](O)CC21C (stereo not given in full)
1.03

###

- RUN_DESCRIPTION: chemical genetic growth profiling, strain panel (AID 1159580);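 also: tested at 20 µM; growth read once vehicle control cultures reached saturation at 30 °C; 1 = growth at the plate median or of vehicle wells; lower values mean less growth of the strain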
- CONDITION_NOTES: S. cerevisiae deletion strains, growth OD, locus YML124C, strain tub3, hits give low values
About 2,000 (36%) of roughly 5,500 compounds were called active. Roughly 18% stayed inconclusive and do not appear here. Some of the results follow.
// normalized growth lookup, one value per entry
Output: the number by itself.

O=c1c(O)cc([C@H]2Oc3cc(O)cc(O)c3C[C@H]2O)cc2c([C@H]3Oc4cc(O)cc(O)c4C[C@H]3O)cc(O)c(O)c12: 1.02
CC1(C)S[C@@H]2C(N3C(=O)[C@@H](c4ccccc4)NC3(C)C)C(=O)N2[C@H]1C(=O)O (some centres not stated): 1.02
C[C@]12CCC(=O)C=C1CCc1ccc(O)cc12: 0.979
CO[C@@H]1[C@@H](OC(N)=O)[C@@H](O)[C@H](Oc2ccc3c(O)c(NC(=O)c4ccc(O)c(CC=C(C)C)c4)c(=O)oc3c2C)OC1(C)C: 1
CC(=O)N1CCN(c2ccc(OCC3CO[C@](Cn4ccnc4)(c4ccc(Cl)cc4Cl)O3)cc2)CC1 (some centres not stated): 0.0927

For the compound COc1ccccc1N1CCN(CCCNc2cc(=O)n(C)c(=O)n2C)CC1 , what normalized growth is on record?
0.997

Quick one: normalized growth for NC[C@@H]1O[C@H](O[C@@H]2[C@@H](CO)OC(O[C@@H]3[C@@H](O)[C@H](N)C[C@H](N)[C@H]3O[C@H]3O[C@H](CO)[C@@H](O)[C@H](O)[C@H]3N)[C@@H]2O)[C@H](N)[C@@H](O)[C@@H]1O (some centres not stated) ?
0.985

###

- RUN_DESCRIPTION: chemical genetic growth profiling, strain panel (AID 1159580);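 also: tested at 20 µM; growth read once vehicle control cultures reached saturation at 30 °C; 1 = growth at the plate median or of vehicle wells; lower values mean less growth of the strain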
- CONDITION_NOTES: S. cerevisiae deletion strains, growth OD, locus YGR229C, strain SMI1, hits give low values
In all, about 5,500 compounds went through this assay and about 2,000 (36%) were called active. Not shown: some 18% with an inconclusive outcome. Some of the results follow.
The entries below come with measured normalized growth values attached.
Form field (numeric): enter value without unit.

C[C@@H]1CCC2[C@](C)(CO)[C@@H](O)CC[C@]2(C)[C@@]12CC[C@@](CO)(CCO)O2 (stereo not given in full): 1.04

Which measured normalized growth value corresponds to CSCCC(N)C(=O)NC(CC(C)C)C(=O)NC(Cc1ccccc1)C(=O)O (stereo not given) ?
1.04

Which normalized growth value belongs to Cc1ccc(OS(=O)(=O)c2ccc(Cl)cc2)c([N+](=O)[O-])n1 ?
0.978

For the compound shown here, CC(C)(C)OC(=O)NCc1n[nH]c(=S)n1-c1ccccc1 , give the reported normalized growth.
0.999

normalized growth lookup needed for COc1ccc(-c2cc(=O)c3c(O)cc(O)cc3o2)cc1O , thanks.
0.937

Would you mind telling me what normalized growth value was observed for COc1nc(NC(C)C)nc(NC(C)C)n1 ?
1.02

Bench note: what normalized growth did CSc1nc(NC(C)C)nc(NC(C)C)n1 show?
1.02

So what does the record say about normalized growth for CC(=O)O[C@@H]1CC2C(C)(C)CCC[C@]2(C)C2CC[C@]3(C)C(=CC(=O)O[C@H]3c3ccoc3)[C@@]21C (stereo not given in full) ?
0.97

Given CC(C)Nc1nc(Cl)nc(NC(C)C)n1 , state its recorded normalized growth.
1

May I ask what normalized growth has been recorded for O=C(Nc1ccccc1)N1CCN(C(c2ccccc2)c2ccccc2)CC1 ?
1
